Reference source: patent US10144706B2

- EXPERIMENTAL_SYSTEM: PD-1/PD-L1 interaction (PD-1-Ig / PD-L1-His) (Homo sapiens, UniProt Q9NZQ7)
- Construct: hPDL1(18-239)-TVMV-His; TVMV protease site linker (C); made in house; host or cells: HEK293T
- Sequence (Q9NZQ7 with tags, fused parts or gaps): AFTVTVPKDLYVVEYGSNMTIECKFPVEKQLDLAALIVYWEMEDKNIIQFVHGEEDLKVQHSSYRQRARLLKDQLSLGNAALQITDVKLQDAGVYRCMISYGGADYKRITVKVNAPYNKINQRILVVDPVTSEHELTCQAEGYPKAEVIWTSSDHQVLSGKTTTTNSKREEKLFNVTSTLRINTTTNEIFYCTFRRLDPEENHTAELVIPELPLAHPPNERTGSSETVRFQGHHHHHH
- TEST_NAME: PD-1/PD-L1 Homogenous Time-Resolved Fluorescence (HTRF) binding assay
- TEST_SETTINGS: IC50 range class; PD-L1-His 10 nM, PD-1-Ig 20 nM; read-out: Range or IC50
Here, each record is paired with measured IC50 data.

Some entries whose results are on file:
>  <COMPOUND>
Cc1c(OCCCN2CC[C@@H](O)C2)cccc1-c1cccc(S(=O)(=O)NCCN2CC[C@@H](O)C2)c1C [Example 3016]

>  <OBSERVABLE>
IC50

>  <OBSERVED_RESULT>
> 10000 nM

$$$$
>  <COMPOUND>
Cc1cc(OCCCN2CC[C@@H](O)C2)ccc1-c1ccc(OCCCN2CC[C@@H](O)C2)cc1C [Example 3012]

>  <OBSERVABLE>
IC50

>  <OBSERVED_RESULT>
> 10000 nM

$$$$

Tell me the measured IC50 of Cc1c(OCCCN2CC[C@@H](O)C2)cccc1-c1cccc(OCCCN2CC[C@H](CO)[C@H](O)C2)c1C [Example 2033] , please.
0.04 to 20 nM

Tell me the measured IC50 of COc1cc2c(cc1OC)CN(CCCOc1cccc(-c3cccc(OCCCN4CC[C@@H](O)C4)c3C)c1C)CC2 [Example 2004] , please.
20.1 to 90 nM
